# ASSAY DETAILS: Solubility of compound in water by HPLC-UV method
# Format: physicochemical
Binary call on solubility: criterion met from 80 µg/mL upward, criterion not met beneath that.

Request: Is solubility at least 80 µg/mL? Consider COc1cccc2cc(CSc3nc4cncnc4n3[C@@H]3O[C@H](CO)[C@@H]4OC(C)(C)O[C@@H]43)c(=O)oc12
Response: criterion met

Request: Would you say COc1cccc2cc(CSc3nc4cncnc4[nH]3)c(=O)oc12 shows solubility at minimum 80 µg/mL?
Response: criterion not met

Request: Would you say COc1cccc2cc(CSc3nc4cncnc4n3[C@@H]3O[C@H](CO)[C@@H](O)[C@H]3O)c(=O)oc12 shows solubility at minimum 80 µg/mL?
Response: criterion met

Request: Quick check, solubility >= 80 µg/mL? COc1cccc2cc(CSc3nc4cncnc4n3[C@@H]3O[C@H](COC(C)=O)[C@@H](O)[C@H]3O)c(=O)oc12
Response: criterion met
